FYI, the data here is from PubChem BioAssay (NCI).

# assay_name: NCI Yeast Anticancer Drug Screen. Data for the rad52 strain (AID 147);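 further: 0% = growth of vehicle-treated control cultures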
# condition_set: S. cerevisiae rad52 mutant growth inhibition; at 100.0 µM; active compounds read high
This is part of a sample that, as a whole, favours compounds with a hit. Of some 79,000 tested, about 15% had one in any assay. Residues, ends and D or L forms follow the SMILES beside them. *: point of attachment. Fmoc = O=C(OCC1c2ccccc2-c2ccccc21)*; Boc = CC(C)(C)OC(=O)*
property_measured: growth inhibition (%)
# unit: % | format: bare number

Req: What does the record list as growth inhibition for BrC1C2CCC3OC3C12 (stereo unspecified) ?
Resp: 99

Req: What does the record list as growth inhibition for O=S(=O)(NNc1ccccc1)c1ccccc1 ?
Resp: 97

Req: What does the record list as growth inhibition for COc1ccc(C(C)c2cc3c(cc2OC(C)O)OCO3)cc1 (stereo unspecified) ?
Resp: 89

Req: What does the record list as growth inhibition for O=C1C=C(Br)C(=O)c2ccccc21 ?
Resp: 99

Req: What does the record list as growth inhibition for N#[N+]c1c([O-])c2ccccc2c2ccccc12 ?
Resp: 97

Req: What does the record list as growth inhibition for CC(C)C(=O)CC(Sc1ccc(N)cc1)c1ccccc1 (stereo unspecified) ?
Resp: 83

Req: What does the record list as growth inhibition for Clc1ccc(/C(=C\c2ccccc2)Cn2ccnc2)cc1 ?
Resp: 76

Req: What does the record list as growth inhibition for CN(C)CC(CN(C)C)C(=O)/C=C/c1ccc(Cl)cc1Cl ?
Resp: 97

Req: What does the record list as growth inhibition for CCCCCCNCCCNc1c2ccccc2nc2cccc([N+](=O)[O-])c12 ?
Resp: 95

Req: What does the record list as growth inhibition for CC(C)(C)OC(=O)NCCCCC(NC(=O)C(Cc1c[nH]c2ccccc12)NC(=O)OCC1c2ccccc2-c2ccccc21)C(=O)O (stereo unspecified) (Fmoc-Trp-Lys(Boc)-OH; configuration not given here) ?
Resp: 58

Req: What does the record list as growth inhibition for NC(CCCCCCCCCCCCC(N)C(=O)c1ccccc1)C(=O)c1ccccc1 (stereo unspecified) ?
Resp: 96

---

# assay_name: NCI Yeast Anticancer Drug Screen. Data for the rad50EPP+ strain (AID 151);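 further: 0% = growth of vehicle-treated control cultures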
# condition_set: S. cerevisiae rad50 mutant strain, at 100.0 µM
# Protocol: Growth inhibition of yeast strains with defined genetic alterations is measured as a screen for potential anti-cancer activity. Selected strains with alterations in DNA damage repair or cell cycle control were exposed to compounds and growth inhibition was measured relative to vehicle treated controls. The strain used in this assay is rad50EPP+
The panel holds about 79,000 compounds, 15% with a hit somewhere; the sample as a whole holds those more often. The source made the active and inactive calls. Cut-off read from the data, not from the text of the source: active = growth inhibition above about 70%; inactive = the rest.
Result category, one only: t for active, f for inactive

Req: Per the assay record, what outcome was assigned to CCCCCCNCCCNc1c2cc(OC)ccc2nc2cccc([N+](=O)[O-])c12 ?
Resp: t

Req: Per the assay record, what outcome was assigned to O=C(Cc1ccccc1)NN1C(=O)C(Cl)C1c1cc(Br)cc(Br)c1O (stereo not given) ?
Resp: f

Req: Per the assay record, what outcome was assigned to O=C1C(=C2CCCC2)CCC1CN1CCCCC1 (stereo not given) ?
Resp: t

Req: Per the assay record, what outcome was assigned to CCCCCCCN1C(=O)c2ccccc2C1=O ?
Resp: f

Req: Per the assay record, what outcome was assigned to Nc1cc2ccccc2cc1N ?
Resp: t

Req: Per the assay record, what outcome was assigned to CCOC(=O)C(Cc1c2ccccc2cc2ccccc12)(NC(C)=O)C(=O)OCC ?
Resp: f

Req: Per the assay record, what outcome was assigned to CNCC(C)CNC ?
Resp: f

Req: Per the assay record, what outcome was assigned to c1ccc2nc3c(nc2c1)sc1ccccc13 ?
Resp: t

Req: Per the assay record, what outcome was assigned to O=C(O)C1CCCCC1c1c2ccc(=O)cc-2oc2cc(O)ccc12 (stereo not given) ?
Resp: f

Req: Per the assay record, what outcome was assigned to O=C(O)C(=Cc1ccc(-c2ccccc2)cc1)C(=O)O ?
Resp: f

Req: Per the assay record, what outcome was assigned to NC(CCCCCCCCCCCCC(N)C(=O)c1ccccc1)C(=O)c1ccccc1 (stereo not given) ?
Resp: f

Req: Per the assay record, what outcome was assigned to OC(Cc1cccc2ccccc12)CN1CCC(c2ccccc2)CC1 (stereo not given) ?
Resp: f

Req: Per the assay record, what outcome was assigned to ClCCCOc1c(Cl)cc(Cl)cc1Cl ?
Resp: f

Req: Per the assay record, what outcome was assigned to C/C(=N\Sc1ccccc1)c1ccccc1O ?
Resp: t

Req: Per the assay record, what outcome was assigned to Cc1ccc(C)c(C(=N)c2ccccc2Cc2ccccc2)c1 ?
Resp: t

Req: Per the assay record, what outcome was assigned to CNC(=O)OCc1c2ccncc2c(C)c2c1[nH]c1ccccc12 ?
Resp: f

Req: Per the assay record, what outcome was assigned to CCCCCCNCCCNc1c2ccccc2nc2cccc([N+](=O)[O-])c12 ?
Resp: t

Req: Per the assay record, what outcome was assigned to Nc1ccc(N=Nc2ccc(-c3ccc(O)cc3)cc2)c2ccc(S(=O)(=O)O)cc12 ?
Resp: t

Req: Per the assay record, what outcome was assigned to CCN(CC)CCNc1ccc2nc(C)n3c4ccc(O)cc4c(=O)c1c23 ?
Resp: f

Req: Per the assay record, what outcome was assigned to CCCCCCCCSC1=C(Cl)C(=O)C(OC)=C(OC)C1=O ?
Resp: t

Req: Per the assay record, what outcome was assigned to CC(C)NCCCNc1c2ccccc2nc2cccc([N+](=O)[O-])c12 ?
Resp: t

Req: Per the assay record, what outcome was assigned to CN(CCOc1ccc(Cl)cc1)CCOc1ccc(Cl)cc1 ?
Resp: f

Req: Per the assay record, what outcome was assigned to Cc1ccc(S(=O)(=O)NC(=O)C2C(=O)CC3(CCCCC3)CC2=O)cc1 ?
Resp: f

Req: Per the assay record, what outcome was assigned to Cc1cccc2c(NCCCN(C)C)c3c([N+](=O)[O-])ccc(C)c3nc12 ?
Resp: t

Req: Per the assay record, what outcome was assigned to O=C(NCCCCN(CCCNC(=O)C(F)(F)F)Cc1ccccc1)C(F)(F)F ?
Resp: f

---

Can you tell me growth inhibition for the items I'm about to list?
# assay_name: NCI Yeast Anticancer Drug Screen. Data for the rad18 strain (AID 177)
# condition_set: S. cerevisiae rad18 mutant growth inhibition; at 11.0 µM; active compounds read high
This is part of a sample that, as a whole, favours compounds with a hit. Of some 79,000 tested, about 15% had one in any assay.
# unit: % | format: bare number

Req: What does the record list as growth inhibition for S=C1N(c2ccc(Cl)cc2)C2=C(N=Nc3ccccc3)C(=Nc3ccccc3S2)N1c1ccccn1 ?
Resp: 44

Req: What does the record list as growth inhibition for CC(C)[Si]1(C(C)C)OCC2OC(n3cnc4c(N)ncnc43)C(N)C2O[Si](C(C)C)(C(C)C)O1 (stereo not given) ?
Resp: 22

Req: What does the record list as growth inhibition for COc1ccc(C(=O)/C=C\c2ccc(Cl)c(Cl)c2)cc1 ?
Resp: -44

Req: What does the record list as growth inhibition for CNC(=S)N/N=C(/C)CCC/C(C)=N/NC(=S)NC ?
Resp: 19

Req: What does the record list as growth inhibition for O=[N+]([O-])[O][Sn]([O][Sn]([O][N+](=O)[O-])([c]1ccccc1)[c]1ccccc1)([c]1ccccc1)[c]1ccccc1 ?
Resp: -11

Req: What does the record list as growth inhibition for O=[N+]([O-])c1ccc(/C=C\c2ccc3c(c2)OCO3)c([N+](=O)[O-])c1 ?
Resp: 11

Req: What does the record list as growth inhibition for N#CC1OB(O)c2ccccc21 (stereo not given) ?
Resp: 1

Req: What does the record list as growth inhibition for COc1ccc(C2CC(C)(N3CCCC3)Oc3cc4c(cc32)OCO4)cc1 (stereo not given) ?
Resp: 12

Req: What does the record list as growth inhibition for CCCCCCCCSC1=C(Cl)C(=O)C(OC)=C(OC)C1=O ?
Resp: 1

Req: What does the record list as growth inhibition for O=C(CCSC1=NCCCN1)c1ccc(F)cc1 ?
Resp: -22

---

# assay_name: NCI Yeast Anticancer Drug Screen. Data for the mlh1 rad18 strain (AID 175)
# condition_set: S. cerevisiae mlh1 rad18 strain growth inhibition; at 50.0 µM; active compounds read high
The panel holds about 79,000 compounds, 15% with a hit somewhere; the sample as a whole holds those more often.
Answer not satisfied if growth inhibition is under 90%, and satisfied if it is 90% or more.

Req: Test whether the compound CN(C)CCCn1c2c3ccccc3ccc2c2oc(=O)c3ccccc3c21 records growth inhibition of 90% or higher.
Resp: satisfied

Req: Test whether the compound COc1ccc(-c2cc(-c3cc(C)cc(Cl)c3O)nc3[nH]c(=S)[nH]c(=S)c23)cc1 records growth inhibition of 90% or higher.
Resp: not satisfied

Req: Test whether the compound COc1cccc(C(NC2=NCCC=N2)c2cc3c(cc2O)OCO3)c1O (stereo unspecified) records growth inhibition of 90% or higher.
Resp: not satisfied

Req: Test whether the compound CCCC/C=C1\CCC(CN2CCCC2)C1=O (stereo unspecified) records growth inhibition of 90% or higher.
Resp: not satisfied

Req: Test whether the compound c1c[nH]c(CN2CCN(Cc3ncc[nH]3)CC2)n1 records growth inhibition of 90% or higher.
Resp: satisfied

Req: Test whether the compound COc1ccc2cc(C(C)C(=O)N3CCOC3=O)ccc2c1 (stereo unspecified) records growth inhibition of 90% or higher.
Resp: not satisfied

Req: Test whether the compound COc1ccc(C2CC(C)(N3CCCC3)Oc3cc4c(cc32)OCO4)cc1 (stereo unspecified) records growth inhibition of 90% or higher.
Resp: not satisfied

Req: Test whether the compound O=C1c2cccc3cccc(c23)C(=O)N1O records growth inhibition of 90% or higher.
Resp: not satisfied

Req: Test whether the compound O=C(O)C1CCCCC1c1c2ccc(=O)cc-2oc2cc(O)ccc12 (stereo unspecified) records growth inhibition of 90% or higher.
Resp: not satisfied

Req: Test whether the compound COC1/C=C\C=C(/C)C(=O)NC2=CC(=O)C(=O)C(=C2O)CC(C)CC(OC)C(O)C(C)/C=C(\C)C1OC(N)=O (stereo unspecified) records growth inhibition of 90% or higher.
Resp: not satisfied

Req: Test whether the compound CC(=O)CCC1=C(C)C(=O)C(=O)C(C)=C1O records growth inhibition of 90% or higher.
Resp: not satisfied
